Tested on: Liver
test protocol: Oxidative metabolism in mouse liver microsomes assessed as compound remaining
Format: ADME, Microsome
Give Stability for every item shown.
Numbers only, in %.

# molecular string, tested target, observed result
rows = [
    ("O=S(=O)(c1ccc(F)cc1)N1c2cc(F)c(F)cc2-c2n[nH]cc2[C@H]1C1CC1", "Liver", 52),
    ("CC[C@H]1Cc2n[nH]cc2[C@@H](CC)N1S(=O)(=O)c1ccc(Cl)cc1", "Liver", 1),
    ("C[C@@H]1c2c[nH]nc2-c2cc(F)ccc2N1S(=O)(=O)c1ccc(F)cc1", "Liver", 22),
    ("O=S(=O)(c1ccc(Cl)cc1)N1Cc2c[nH]nc2-c2ccccc21", "Liver", 3),
    ("CC(C)[C@@H]1c2c[nH]nc2-c2cc(F)c(F)cc2N1S(=O)(=O)c1ccc(C(F)(F)F)cc1", "Liver", 15),
]

Hi, could you look up Stability for each item in my list?
1. O=S(=O)(c1ccc(C(F)(F)F)cc1)N1c2cc(F)c(F)cc2-c2n[nH]cc2[C@H]1C1CC1
2. NC(=O)[C@@H](CCC(F)(F)F)N(Cc1ccc(-c2ncon2)cc1F)S(=O)(=O)c1ccc(Cl)cc1

Response given:
1: 72; 2: 1

Challenge: Param readout = Stability; param system = Liver; param query = `C[C@@H]1c2c[nH]nc2-c2cc(F)c(F)cc2N1S(=O)(=O)c1ccc(C(F)(F)F)cc1` ; response: value
Response given: 20

====

Provide the reported Stability of each item.
System: Liver
test protocol: Oxidative metabolism in dog liver microsomes assessed as compound remaining
Type: ADME, Canis lupus familiaris, Microsome
Answers are plain numbers, in %.

Use the examples below as a reference point.
# molecular string, units symbol, observed result
data = [
    ("O=S(=O)(c1ccc(C(F)(F)F)nc1)N1c2ccc(F)cc2-c2n[nH]cc2[C@H]1C1CC1", "%", 80),
    ("O=S(=O)(c1ccc(F)cc1)N1c2cc(F)c(F)cc2-c2n[nH]cc2[C@H]1C1CC1", "%", 47),
]

Next up:
Challenge: Dear colleague, I am looking for the recorded Stability of the following compound: `CC[C@H]1Cc2n[nH]cc2[C@@H](CC)N1S(=O)(=O)c1ccc(Cl)cc1`
Response given: 0

====

Test system: Liver
test protocol: Oxidative metabolism in dog liver microsomes assessed as compound remaining
Assay type: ADME, Canis lupus familiaris, Microsome
measured quantity: Stability
Express the reported value numerically, then name its unit.

Below: 8 compounds and their reported Stability.
# molecular string, tested target, Stability
measured = [
    ("C[C@@H]1c2c[nH]nc2-c2cc(F)ccc2N1S(=O)(=O)c1ccc(F)cc1", "Liver", "49%"),
    ("O=S(=O)(c1ccc(C(F)(F)F)cc1)N1c2ccccc2-c2n[nH]cc2[C@H]1C1CC1", "Liver", "46%"),
    ("O=S(=O)(c1ccc(Cl)cc1)N1Cc2c[nH]nc2-c2ccc(F)cc21", "Liver", "0%"),
    ("NC(=O)[C@@H](CCC(F)(F)F)N(Cc1ccc(-c2ncon2)cc1F)S(=O)(=O)c1ccc(Cl)cc1", "Liver", "79%"),
    ("C[C@@H]1c2c[nH]nc2-c2cc(F)c(F)cc2N1S(=O)(=O)c1ccc(C(F)(F)F)cc1", "Liver", "54%"),
    ("O=S(=O)(c1ccc(Cl)cc1)N1[C@H]2CCC[C@@H]1c1cn[nH]c1C2", "Liver", "2%"),
    ("O=S(=O)(c1ccc(Cl)cc1)N1Cc2c[nH]nc2-c2cc(F)ccc21", "Liver", "0%"),
    ("CC(C)[C@H](O)C(=O)N[C@@H](C)C(=O)N[C@@H]1C(=O)N(C)CCc2ccccc21", "Liver", "100%"),
]

We now examine a further compound.
Challenge: Which Stability value belongs to `O=S(=O)(c1ccc(Cl)cc1)N1Cc2c[nH]nc2-c2ccccc21` ?
Response given: 0%

====

Test system: Liver microsomes
test protocol: Oxidative metabolism in human liver microsomes assessed as compound remaining
Assay type: ADME, Microsome
Exercise: for every item that follows, state its recorded Stability.
Answers are plain numbers, in %.

Solved cases below.
# molecular string, units symbol, observed result
measured = [
    ("O=S(=O)(c1ccc(F)cc1)N1c2cc(F)c(F)cc2-c2n[nH]cc2[C@H]1C1CC1", "%", 24),
    ("O=S(=O)(c1ccc(Cl)cc1)N1[C@H]2CCC[C@@H]1c1cn[nH]c1C2", "%", 50),
    ("O=S(=O)(c1ccc(Cl)cc1)N1Cc2c[nH]nc2-c2cc(F)ccc21", "%", 0),
    ("O=S(=O)(c1ccc(Cl)cc1)N1Cc2c[nH]nc2-c2ccc(F)cc21", "%", 1),
]

Record Stability per entry; entries follow.
1. O=S(=O)(c1ccc(C(F)(F)F)cc1)N1c2ccc(F)cc2-c2n[nH]cc2[C@H]1C1CC1
2. C[C@@H]1c2c[nH]nc2-c2cc(F)c(F)cc2N1S(=O)(=O)c1ccc(C(F)(F)F)cc1
3. O=S(=O)(c1ccc(C(F)(F)F)cc1)N1c2cc(F)c(F)cc2-c2n[nH]cc2[C@H]1C1CC1
4. O=S(=O)(c1ccc(C(F)(F)F)cc1)N1c2ccccc2-c2n[nH]cc2[C@H]1C1CC1

Response given:
1. 84
2. 28
3. 80
4. 36

Challenge: Name the reported Stability value associated with the compound `CC(C)[C@@H]1c2c[nH]nc2-c2cc(F)c(F)cc2N1S(=O)(=O)c1ccc(C(F)(F)F)cc1`
Response given: 22

====

System: Liver
test protocol: Glucuronidation metabolism in mouse liver microsomes assessed as compound remaining
Assay type: ADME, Microsome
measured quantity: Stability (%)
Numbers only, in %.

# molecular string, Stability [%]
records = [
    ("C[C@@H]1c2c[nH]nc2-c2cc(F)c(F)cc2N1S(=O)(=O)c1ccc(C(F)(F)F)cc1", 93),
]

// each listed compound needs a value for Stability
1. O=S(=O)(c1ccc(F)cc1)N1c2cc(F)c(F)cc2-c2n[nH]cc2[C@H]1C1CC1
2. O=S(=O)(c1ccc(Cl)cc1)N1Cc2c[nH]nc2-c2cc(F)ccc21

Response given:
1: 93; 2: 80

====

Assign ED50 to each entry below.
Test system: CHO
test protocol: Inhibition of gamma-secretase in CHO cells assessed expressing APPSw assessed as inhibition of amyloid beta(1 to x) secretion after overnight incubation by ELISA
Type: cell-based
condition details: Cricetulus griseus
Answers are plain numbers, in nM.

# molecular string, ED50 (nM)
measured = [
    ("CC(C)[C@@H]1c2c[nH]nc2-c2cc(F)c(F)cc2N1S(=O)(=O)c1ccc(C(F)(F)F)cc1", 5.6),
    ("O=S(=O)(c1ccc(Cl)cc1)N1Cc2c[nH]nc2-c2cc(F)ccc21", 99),
    ("O=S(=O)(c1ccc(C(F)(F)F)nc1)N1c2ccc(F)cc2-c2n[nH]cc2[C@H]1C1CC1", 0.28),
]

State the recorded ED50 for every item in the following list.
1. O=S(=O)(N[C@H](CO)C(C(F)(F)F)C(F)(F)F)c1ccc(Cl)s1
2. C[C@@H]1c2c[nH]nc2-c2cc(F)ccc2N1S(=O)(=O)c1ccc(Cl)cc1

Response given:
[7.8, 2.7]

Please report ED50 for every entry that follows.
1. O=S(=O)(c1ccc(Cl)cc1)N1Cc2c[nH]nc2-c2ccccc21
2. O=S(=O)(c1ccc(C(F)(F)F)cc1)N1c2cc(F)c(F)cc2-c2n[nH]cc2[C@H]1C1CC1
3. CC[C@H]1Cc2n[nH]cc2[C@@H](CC)N1S(=O)(=O)c1ccc(Cl)cc1
4. C[C@@H]1c2c[nH]nc2-c2cc(F)c(F)cc2N1S(=O)(=O)c1ccc(C(F)(F)F)cc1

Response given:
1: 100; 2: 1.1; 3: 0.75; 4: 13

====

Test system: Liver microsomes
test protocol: Oxidative metabolism in human liver microsomes assessed as compound remaining
Format: ADME, Microsome
Returns one of true or false; true when Stability is >= 20%.

Past entries and their recorded results:
# molecular string, assigned class
measured = [
    ("C[C@@H]1c2c[nH]nc2-c2cc(F)ccc2N1S(=O)(=O)c1ccc(F)cc1", "false"),
    ("NC(=O)[C@@H](CCC(F)(F)F)N(Cc1ccc(-c2ncon2)cc1F)S(=O)(=O)c1ccc(Cl)cc1", "true"),
    ("O=S(=O)(c1ccc(Cl)cc1)N1Cc2c[nH]nc2-c2ccccc21", "false"),
    ("CC[C@H]1Cc2n[nH]cc2[C@@H](CC)N1S(=O)(=O)c1ccc(Cl)cc1", "false"),
    ("O=S(=O)(N[C@H](CO)C(C(F)(F)F)C(F)(F)F)c1ccc(Cl)s1", "true"),
]

Challenge: Check the entry `CC(C)[C@H](O)C(=O)N[C@@H](C)C(=O)N[C@@H]1C(=O)N(C)CCc2ccccc21` : does Stability equal or exceed 20%?
Response given: true

Challenge: hey, is Stability for this one >= 20%? `C[C@@H]1c2c[nH]nc2-c2cc(F)ccc2N1S(=O)(=O)c1ccc(Cl)cc1`
Response given: false

Challenge: Determine whether measured Stability meets or exceeds 20% for `O=S(=O)(c1ccc(C(F)(F)F)nc1)N1c2ccc(F)cc2-c2n[nH]cc2[C@H]1C1CC1`
Response given: true
